# Experimental Protocol: yeast display, Sf9 membrane polyspecificity reagent, FACS + sequencing; frameworks hold sequencing errors
Property Label: polyreactivity (PSR sort gate)

QVQLVESGGGLVQAGGSLRLSCAASVPTFPFNAMGWYRQAPGKERELVAAISWRDGRTYYADSVKGRFTISRDNAKNTVYLQMNSLKPEDTAVYYCNVVKRRSDWGMDYWGQGTKVTVSS high polyreactivity
HLQLVESGGGLVQAGGSLRLSCAASGSILNFYAMGWYRQAPGTERELVAAISSSGGSTYYADSVKGRFTISRDNAKNTVYLQMNILQPEDTAVYYCNADYSPSSDSEYGYWGQGTQVTVSS low polyreactivity
QVQIVESGGGLVQAGGSLRLSCAASGSIFQFYAMGWSRQAPGKERELVAVITTSGVSTYYADSVKGRFTISRDNAKYTVYLQMNSLKPEDTAVYYCAADDYYLAGDYWGQGTQVTVSS low polyreactivity
QVQLVESGGRLVQAGGSLRLTCAASGSTIYQYVMRWYRQAPGKERELVAVITWSGGRTYYADSVKGRFTISRDNAKNTVYLQMNSLKPEDTAGYYCAADPLSGYDYWGQGTHVTVSS low polyreactivity
QVQLVESGGGLVQAGGSLRLSCAASGFIISGYAMGWYRQAPGKERELVAAISWSGGRTYYADSVKGRFTISRDNAKNTVYLQMKSLKPEDTAVYYFAADGYYRDWYGYGYWGLGTQVTVSS high polyreactivity
QVQLVESGGGLVQAGGSLRLSCAASGFTFYKYVMGWYRQAPGKERELVAAITQGGGSTYYADSVKGRFTISRDNAKNTVYLQMNSLKPEDTAVYYCAAVTRGSRGVNFGYWGQGTQVTVSS high polyreactivity

# sequence QVQLVESGGGLVQAGGSLRLSCAASGSTFIGYAMGWYRQAPGKERELVASISWGGGSTYYADSVKGRFTISRDNAKNTVYLQQNSLIPEDTAVYYCNTYYWFSGCPYDYWGQGTQVTVSS ; its polyreactivity (PSR sort gate) = low polyreactivity

# sequence QVQLVESGGGLVQAGGSLRLSCAASGITFYVNAMGWYRQAPGKERELVAAISRSGGSTYYADSVKGRFTISRDNAKNTVYLQMNSLKPEDTAVYYCNKEDYGLYPYYVSVGYDYWGQGTQVTVSS ; its polyreactivity (PSR sort gate) = low polyreactivity

----------
# Experimental Protocol: yeast display, Sf9 membrane polyspecificity reagent, FACS + sequencing; frameworks hold sequencing errors
Property Label: polyreactivity (PSR sort gate)

Use the examples below as a reference point.
QVQLVESGGGLVQAGGSLRLSCAASGSIFGYYVMGWYRQAPGKERELVAAISRSGGSTYYADSVKGRFTISRDHAKNTVYLQMNSLKPEDTAVYYCAARGTAERDYWGQGTQVTVSS high polyreactivity
QVQLVESGGGLVQAGGSLRLSCAASGRTFSRYAMGWSRQAPGKERELVASITSRGGSTYYADSVKGRFTISRDNAKNTVYLQMNSLKPEDTAVYYCNVKPTYSTRYWEDYWGQGTQVTVSS high polyreactivity
QVQLVESGGGLVQAGGSLRLSCAASGSIFTRYAMGWYRQAPGKERELVAAITKSGSRTYYADSVKGRFTISRDNAKNTVYLQMNSLKPEDTAVYYCAVKFYLPRTRGGYWGQGTQVTVSS high polyreactivity
QVQLVETGGGLVQAGGSLRLSSAASGITSNSYAMGWYRQAPGKERELVATITSGGSTNYADSVKGRFTITLDNAKNSVYLQMNSLKPEDTAVYYCNREYWLPTQYDYWGQGTQVTVSS low polyreactivity
QVHLVESRGVLVQAGGSLRLSCAASGRTFPSYTMGWYRQAPGKERELVAAITWTGGSTYYADSVKGRFTISRDNAKNTVYFQMNSLKPDDTAVYYCADYDYWGQGTQVTVSS low polyreactivity
QVQLVESGGGLVQAGGSLRLSCAASGYIFGSYVMGWYRQAPGKERELVAAITRIGASTYYADSVKGRFTISRDNAKNNVYLQMNSLKPEDTAVYYCATDQGGYYENDYWGQGNQVTVSS low polyreactivity

# sequence QVHLVESGGGLVQAGGSLRLSCAASGLTFGVFAMGWYRQAPGKERELVAAITWRGDTTYYADSVKGRFTISRDNAKNTVYLQMNSLKPEDTAVYYCNAVFFYHGTKPAFISHDYWGQGTQVTVSS ; its polyreactivity (PSR sort gate) = low polyreactivity

# sequence QVQLVESGGGLVQAGGSLRLSCAASGRIFPTYAMVWYRQAPGKDRELVASISWSGGRTYYADSVKGRFSISRDNAKITVFLQMNSLKPEDTAVYYCAKRTYQGEGTVKRRYDYWGQVTQVTVSS ; its polyreactivity (PSR sort gate) = low polyreactivity

# sequence QVQLVESGGGLVQAGGSLRLSCAASGSIFGTYAMGWYRQAPGKEREFVAAISWSDGSTYYADSVKGRFTISRDNAKNTVYLQMNSLIPEDTAVYYCAVRRVGSIYIDRYIYVVADYDYWGQGTQVTVSS ; its polyreactivity (PSR sort gate) = low polyreactivity

# sequence QVQLVESGGGLVQAGGSLRLSCAASGIILDHYAMGWYRQAPGKERELVAAISSGTRTNYADSVKGRFSISRDNAKHTVSLQMNSLKPEDTAVYNCAATIYRRYRSKYSITSYWGQGTQVTVSS ; its polyreactivity (PSR sort gate) = high polyreactivity

# sequence QEQLLDSGGGLVQAGGSLRLSCAASGYFSSHILSWYRQGPGKVREFVDTITDGGTTDYADSVKGRFTISRDNAKNTVYLQMNSLNPQDTAVYYCAAVATYSYHFGYWGHGTQVTVSS ; its polyreactivity (PSR sort gate) = high polyreactivity

# sequence QVQLVESGGGLVQAGGSLRLSCAASGRTYKYYALGWYRQARGKERELVAAITSGASTNYADSVKGRFTISRDNAKNTVYLQMNSLKPEDTAVYYCAARKAYFFDRYGYWGLGTQVTVSS ; its polyreactivity (PSR sort gate) = high polyreactivity

# sequence QVQLVESGGGLVQAGRSLRLSCAASGSTFDQYDMGWYRQAPGKERELVAAISQSGDRTYYADSVKARFTISRDYAKTTVYLQMNSLQPDDTAVYYCADDGVSQDYYYRYDYWGQCTQVTVSS ; its polyreactivity (PSR sort gate) = low polyreactivity

# sequence QVQLVESGGGLVQAGGSLRLSCAASGSTFYYYAMGWYRPAPGKERELVATIDSGTSTYYADSVKGRFTISRDNAKNTVYFQMNSLKPEDTAVYYCAAKTWSWSYGYNYWGQGTLVTVSS ; its polyreactivity (PSR sort gate) = low polyreactivity

# sequence QVKLVESGGGLVQAGGRLRLSCAASGSIFTYYAMGWYRQAPGKERELVAAISYGGGSTYYADSVKGRFTISRDNAKYTVYLQMNSLKPEDTAVYDCNGVLGVNYGYWGQGTQVTVSS ; its polyreactivity (PSR sort gate) = high polyreactivity

# sequence QVQLVESGGRLFQAGGSLRLSCAASGRTWGYEMGWYRQATGKERELVAAIRNGASTYYADSVKGRFTISRDNAKKTVYFHMNSRKPEDTAVYYCDADYTVRVVATYDYWGQGTQVTVSS ; its polyreactivity (PSR sort gate) = low polyreactivity

# sequence QVQLVESGGGLVQAGGSLRLSCAASGYTFGSYAMGWYRQAPGTERELVAAIRGSGGSTYYADSVKGRFTISRDNAKNTVYLQLNSLKPEDTAVYYGATSVRRGGRQLYNYWGQGTQVTVSS ; its polyreactivity (PSR sort gate) = high polyreactivity

# sequence QVQLVESGGGLVQAGGSLRLSCAASGFTIYKNAMAWYRQAPGKERELVAAISGRGGSTTYADSVKGRFTISRDNAKNTVYLQMNSLKPEDTAVYYCAARFTYSYPLFGSWGQGTQVTVSS ; its polyreactivity (PSR sort gate) = high polyreactivity

# sequence QVQLVESGGGLVQAGGSLRLSCAASGSTFVGYAMGWYRQAPGKERELVADITWSGTNTYYADSVKGRFTISRDNAKNTVYLQMNSLKPEDTAVYYCAAELELLLVGFFTYRREYWGQGTQVTVSS ; its polyreactivity (PSR sort gate) = low polyreactivity

# sequence QVQLVESGGGLVQAGGSLRLSCAASGSIFEVNAMGWYRQAPGKERELVATITYSGGSTYYSDSVKGRFTISRDNAKNTVYLQMHSLKPEDTAVFYCAAPIGDVYVGNGYDSWGQGTQVTVSS ; its polyreactivity (PSR sort gate) = low polyreactivity

# sequence QVQLVESGGGLVQAGGSLRLSCAASGIGCYRQAPGKERELVAAINWSGGNTYYADSVKGRFTISRDNAKNTVYLQMNSLKPEDTAVYYCNAVVWVEVPGDYWGQGTQVTVSS ; its polyreactivity (PSR sort gate) = low polyreactivity

----------
# Experimental Protocol: yeast display, Sf9 membrane polyspecificity reagent, FACS + sequencing; frameworks hold sequencing errors
Property Label: polyreactivity (PSR sort gate)

Use the examples below as a reference point.
QVQLVESGGGLVQAGGSLRLSCAASGSISKINAMGWYRQAPWKERELVAAINTGDSTYYADSVKGRFTISRDNAKNTVYLLMNSLKPEDTAVYYCAAECSPTGYDYWGQGTQVTVSS low polyreactivity
QVQLVESGGGLVQAGGSLRLSCAASGFIFTKYVMGWYRQAPGKERELVAAISLNGGRTYYADSVKGRFTISRDNAKNTVDLQMNSLKPEDTAVYYCAVDAKAVSARTYDYGYWGQGTQVTVSS high polyreactivity
QVLLVESGGGLVQAGGSLRLSCAATGSIFVGYVMGWYRQAPGKERELVAAISRSGGRTYYADSVKGRFTISRDNAKNTVYLQMNSLKPEDTAVYYCAVRHRFYTAGYDYWGQGTQVTVSS low polyreactivity
QVQLVESGGGLVQAGGSLRLTCAASGHIFFYYTMGWYRQAPGKERELVARISSDGDTYYADSVKGRFTISRDNAKNTVYLQMNSLKPEDTAVYYCAAAVLYWVGYGYWGQGTQVTVSS low polyreactivity
QVQLVESGGGLVQAGGSLRLSCAASGFIFVRYAMGWYRQAPGKERELVAAISSSGGTTNYADSVKGRFTISRDNAKHTVYLQMNSLKPEDTAVYYCNADYYWFFDFFDYDYWGQGTQVTVSS low polyreactivity

# sequence QVQLVESGGGLVQAGGSLRLSCAASGSTFNRYAMGWYRQAPGKERELVAAISLSGGSTYYADSVKGRFTISRDNAKNTVYLQMNSLKPEDTAVYYCAADIFYYSSSYGYWGQGTQVTVSS ; its polyreactivity (PSR sort gate) = low polyreactivity

# sequence QVQLVESGGGLVQAGASLRLSCAASGSTFDQYVMGWYRQAPCKERELVAAISRRGGSTYYADSVKGRFTISRDNEKNTVYLQMNSLQPEDTAVYYCAAPSYYRYDYWGQGTQVTVSS ; its polyreactivity (PSR sort gate) = high polyreactivity

# sequence QLQLVESGGGLVQAGGSLRLSCAASGRTLSRYAMGWYRQAPGNERELVAVISSRGGSTYYADSVKGRFTISRDNAKNTVYLRMNSLKPEDTAVFYCAAVRNRHGYDYWGQGTQVTVSS ; its polyreactivity (PSR sort gate) = high polyreactivity

# sequence QVQLVESGGGLVQAGGSLRLSCAASGSIIYRYVMGWYRQAPGKERESVAAISWRGTNTYADSVKGRFTISRDNAKNTVYLQMNSLKPEDTAVYYCAARKWDRYRDFEYWGQGTQVTVSS ; its polyreactivity (PSR sort gate) = high polyreactivity

# sequence QVQLVESGGGLVQAGGSLRLSCAASGGIFSAYSMGWYRKAPGKERELVASITTDGGITYYADSVKGRFTISRDNAKNTVYLQMNSLKPEDTAVYYCAVLQYYYPYYYWGQGTQVTVSS ; its polyreactivity (PSR sort gate) = low polyreactivity

# sequence QVQLVESGGGLVQAGGSLRISCAASGRTFSRYAMGWYRQAPGKERELVAAITRGGGGTYYADSVKGRFTISRDNAKNTVYLQMNSLKPEDTAVYYCNRVLLPGPQYQWGKAYDYWGQGTQVTVSS ; its polyreactivity (PSR sort gate) = high polyreactivity
